Tested on: L1210 leukemia ip in BDF1 mice, survival T/C
measurement-description: NCI In Vivo Anticancer Drug Screen. Data for tumor model L1210 Leukemia (intraperitoneal) in B6D2F1 (BDF1) mice
assay-setup: endpoint: mean survival time; dose: 100.0 mg/kg/injection; schedule: Q01DX009 (ip); vehicle: Klucel (hydroxypropylcellulose) (HPC); higher = longer survival
Toxic doses and inconclusive results are not listed.
T/C by entry:
measured-metric: T/C

[[record]]
smiles_code = "CCc1ccc(NC(=O)CCC(=O)O)cc1"
measured_metric = "T/C"
value_reported = "102 % of control"

[[record]]
smiles_code = "O=C(C[N+]12CN3CN(CN(C3)C1)C2)c1ccc(Br)cc1"
measured_metric = "T/C"
value_reported = "111 % of control"

[[record]]
smiles_code = "O=C(COc1ccc(Cl)cc1Cl)NCc1ccc(Cl)cc1"
measured_metric = "T/C"
value_reported = "91 % of control"

[[record]]
smiles_code = "O=C(O)CCCl"
measured_metric = "T/C"
value_reported = "92 % of control"

[[record]]
smiles_code = "CCOC(=O)Nc1cc(Cl)ccc1C"
measured_metric = "T/C"
value_reported = "102 % of control"

[[record]]
smiles_code = "Cc1ccc([N+](=O)[O-])cc1NC(=O)Nc1ccc(CCO)cc1"
measured_metric = "T/C"
value_reported = "90 % of control"

[[record]]
smiles_code = "Cc1ccc(N=Nc2ccc(C)cc2NC(=O)Nc2ccccc2F)cc1"
measured_metric = "T/C"
value_reported = "104 % of control"

[[record]]
smiles_code = "NNC(=O)c1ccccc1[N+](=O)[O-]"
measured_metric = "T/C"
value_reported = "101 % of control"

[[record]]
smiles_code = "CCCCCCCCCCCCCCCCOc1ccc(C(=O)CC(=O)OC)cc1"
measured_metric = "T/C"
value_reported = "93 % of control"

[[record]]
smiles_code = "Cc1cc2c(c(NC(=O)NCCCl)c1C)CCCC2"
measured_metric = "T/C"
value_reported = "92 % of control"

[[record]]
smiles_code = "O=Cc1ccc(OS(=O)(=O)c2ccc([N+](=O)[O-])cc2)cc1"
measured_metric = "T/C"
value_reported = "97 % of control"

[[record]]
smiles_code = "C/C(=C\\Cl)CN(C)S(=O)(=O)c1ccc(Br)cc1"
measured_metric = "T/C"
value_reported = "94 % of control"

[[record]]
smiles_code = "Nc1cc(N)ncn1"
measured_metric = "T/C"
value_reported = "102 % of control"

